- Study target: Scrib PDZ-3 domain (Homo sapiens, UniProt Q14160)
- Construct: ROC curves of DomPep prediction for the three Scrib PDZ-1/2/3 domains
- Sequence (Q14160 1004-1093 limits assumed): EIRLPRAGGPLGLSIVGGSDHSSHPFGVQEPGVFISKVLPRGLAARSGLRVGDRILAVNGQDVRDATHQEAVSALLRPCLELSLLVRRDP
- Run description: In-solution fluorescence polarization binding of peptides to Scrib PDZ3
- Protocol conditions: Kd value of 100 µM applied as binding cutoff, NB without definition
Residues, ends and D or L forms follow the SMILES beside them.
Overview of reported Kd across a group of compounds:
Readout name: Kd

{"columns": ["Compound", "Readout name", "Reported measurement"],
 "data": [
  ["CC[C@H](C)[C@H](NC(=O)[C@@H]1CCCN1C(=O)[C@@H](NC(=O)CNC(=O)[C@@H](NC(=O)[C@@H](NC(=O)[C@H](CC(N)=O)NC(=O)[C@@H](NC(=O)[C@H](CCC(N)=O)NC(=O)[C@@H](N)CC(=O)O)C(C)C)[C@@H](C)O)C(C)C)[C@@H](C)CC)C(=O)O [EPHA2] (H-DQVNTVGIPI-OH; N-terminus and C-terminus assumed)", "Kd", "> 100 µM"],
  ["CC(C)[C@H](NC(=O)[C@@H]1CCCN1C(=O)[C@@H](NC(=O)[C@@H]1CCCN1C(=O)CNC(=O)[C@H](CC(N)=O)NC(=O)[C@H](CCCCN)NC(=O)[C@H](CO)NC(=O)[C@H](CCC(N)=O)NC(=O)[C@@H](N)[C@@H](C)O)C(C)C)C(=O)O [EPHA3] (H-TQSKNGPVPV-OH)", "Kd", "> 100 µM"]
]}

---

Examples of compounds with documented Kd follow.
- Study target: Scrib PDZ-1 domain (Homo sapiens, UniProt Q14160)
- Construct: ROC curves of DomPep prediction for the three Scrib PDZ-1/2/3 domains
- Run description: In-solution fluorescence polarization binding of peptides to Scrib PDZ1
- Protocol conditions: Kd value of 100 µM applied as binding cutoff, NB without definition, read-out: Kd (µM) PDZ1
Residues, ends and D or L forms follow the SMILES beside them.
Readout name: Kd

{"columns": ["Compound", "Readout name", "Reported measurement"],
 "data": [
  ["CC[C@H](C)[C@H](NC(=O)[C@@H]1CCCN1C(=O)[C@@H]1CCCN1C(=O)[C@@H](NC(=O)[C@H](CO)NC(=O)[C@H](Cc1ccc(O)cc1)NC(=O)[C@H](CC(C)C)NC(=O)[C@@H](NC(=O)[C@@H](NC(=O)[C@@H](N)CO)C(C)C)C(C)C)[C@@H](C)O)C(=O)O [FLT1] (H-SVVLYSTPPI-OH; N-terminus and C-terminus assumed)", "Kd", "> 100 µM"],
  ["CC(C)C[C@H](NC(=O)[C@@H]1CCCN1C(=O)[C@@H](NC(=O)[C@H](CCC(=O)O)NC(=O)[C@H](CCCCN)NC(=O)[C@H](CCCCN)NC(=O)[C@H](Cc1ccc(O)cc1)NC(=O)[C@H](CC(N)=O)NC(=O)[C@H](Cc1ccccc1)NC(=O)[C@@H](N)CO)[C@@H](C)O)C(=O)O [ARD50] (H-SFNYKKETPL-OH)", "Kd", "23.6 µM"],
  ["CC[C@H](C)[C@H](NC(=O)[C@H](CO)NC(=O)[C@H](CO)NC(=O)[C@H](CCC(=O)O)NC(=O)[C@H](C)NC(=O)[C@H](CO)NC(=O)[C@H](C)NC(=O)[C@@H](NC(=O)[C@H](CC(=O)O)NC(=O)[C@@H](N)C(C)C)[C@@H](C)CC)C(=O)O [TANK] (H-VDIASAESSI-OH)", "Kd", "102 µM"],
  ["CC[C@H](C)[C@H](NC(=O)[C@@H](N)CC(N)=O)C(=O)NCC(=O)N[C@@H](CO)C(=O)N[C@@H](CCC(N)=O)C(=O)NCC(=O)N[C@@H](CO)C(=O)N[C@H](C(=O)N[C@@H](CC(=O)O)C(=O)N[C@@H](Cc1ccc(O)cc1)C(=O)O)[C@@H](C)O [TRIM21] (H-NIGSQGSTDY-OH)", "Kd", "> 100 µM"],
  ["CC[C@H](C)[C@H](NC(=O)[C@H](CCC(N)=O)NC(=O)[C@@H](NC(=O)[C@@H](NC(=O)[C@H](Cc1c[nH]cn1)NC(=O)[C@H](CCC(N)=O)NC(=O)CNC(=O)[C@@H]1CCCN1C(=O)[C@H](C)NC(=O)[C@@H]1CCCN1)[C@@H](C)O)[C@@H](C)O)C(=O)O [STK16] (H-PAPGQHTTQI-OH)", "Kd", "> 100 µM"],
  ["CC[C@H](C)[C@H](NC(=O)[C@H](CCCNC(=N)N)NC(=O)[C@@H](NC(=O)[C@H](CCCNC(=N)N)NC(=O)[C@H](CO)NC(=O)[C@H](C)NC(=O)[C@@H](N)CC(N)=O)[C@@H](C)O)C(=O)N[C@H](C(=O)N[C@@H](Cc1ccccc1)C(=O)N[C@H](C(=O)O)C(C)C)[C@@H](C)O [MCM7] (H-NASRTRITFV-OH)", "Kd", "> 100 µM"]
]}

---

- Study target: Scrib PDZ-1 domain (Homo sapiens)
- Construct: ROC curves of DomPep prediction for the three Scrib PDZ-1/2/3 domains
- Run description: In-solution fluorescence polarization binding of peptides to Scrib PDZ1
- Protocol conditions: Kd value of 100 µM applied as binding cutoff, NB without definition, read-out: Kd (µM) PDZ1
Residues, ends and D or L forms follow the SMILES beside them.

{"columns": ["Compound", "Output unit", "Comparative sign", "Kd"],
 "data": [
  ["CC(C)C[C@H](NC(=O)[C@H](CC(N)=O)NC(=O)[C@@H](NC(=O)[C@H](CCC(=O)O)NC(=O)[C@H](CC(=O)O)NC(=O)[C@H](Cc1c[nH]c2ccccc12)NC(=O)[C@H](C)NC(=O)[C@@H]1CCCN1C(=O)[C@H](CC(=O)O)NC(=O)[C@@H](N)CC(N)=O)[C@@H](C)O)C(=O)O [b-PIX] (H-NDPAWDETNL-OH)", "µM", "=", 5.3],
  ["CC(C)[C@H](NC(=O)[C@@H]1CCCN1C(=O)[C@@H](NC(=O)[C@@H]1CCCN1C(=O)CNC(=O)[C@H](CC(N)=O)NC(=O)[C@H](CCCCN)NC(=O)[C@H](CO)NC(=O)[C@H](CCC(N)=O)NC(=O)[C@@H](N)[C@@H](C)O)C(C)C)C(=O)O [EPHA3] (H-TQSKNGPVPV-OH)", "µM", "=", 129],
  ["CC(C)C[C@H](NC(=O)[C@H](CS)NC(=O)[C@H](Cc1c[nH]cn1)NC(=O)[C@H](CC(C)C)NC(=O)[C@H](C)NC(=O)[C@H](CCC(=O)O)NC(=O)[C@H](CC(C)C)NC(=O)[C@H](CCC(=O)O)NC(=O)[C@@H]1CCCN1C(=O)[C@@H](N)CC(=O)O)C(=O)O [EPHA8] (H-DPELEALHCL-OH)", "µM", ">", 100],
  ["CSCC[C@H](NC(=O)[C@H](Cc1ccccc1)NC(=O)[C@H](C)NC(=O)[C@@H](N)Cc1c[nH]c2ccccc12)C(=O)N[C@@H](CCCNC(=N)N)C(=O)N[C@@H](Cc1ccc(O)cc1)C(=O)N[C@@H](CCCNC(=N)N)C(=O)N[C@@H](CCC(N)=O)C(=O)N[C@@H](CCC(N)=O)C(=O)N[C@@H](CC(C)C)C(=O)O [SYNJ2BP] (H-WAFMRYRQQL-OH)", "µM", ">", 100],
  ["CC(C)C[C@H](NC(=O)[C@H](CCCCN)NC(=O)[C@H](CO)NC(=O)[C@H](CCC(=O)O)NC(=O)[C@H](CO)NC(=O)[C@@H](NC(=O)[C@H](CCC(N)=O)NC(=O)[C@@H]1CCCN1C(=O)[C@H](CCCCN)NC(=O)[C@@H](N)C(C)C)C(C)C)C(=O)O [PTE1] (H-VKPQVSESKL-OH; N-terminus and C-terminus assumed)", "µM", ">", 100],
  ["CC(C)C[C@H](NC(=O)[C@H](CCC(=O)O)NC(=O)[C@H](CCC(=O)O)NC(=O)[C@H](CCCNC(=N)N)NC(=O)[C@@H](NC(=O)[C@H](C)NC(=O)[C@H](CO)NC(=O)[C@@H](NC(=O)[C@H](CCCCN)NC(=O)[C@@H](N)CCC(=O)O)C(C)C)[C@@H](C)O)C(=O)O (H-EKVSATREEL-OH)", "µM", ">", 100],
  ["CC(C)C[C@H](NC(=O)[C@H](CO)NC(=O)[C@@H](NC(=O)[C@H](CCC(=O)O)NC(=O)[C@H](CCC(=O)O)NC(=O)[C@H](CS)NC(=O)[C@@H](NC(=O)[C@H](CCCNC(=N)N)NC(=O)[C@@H](NC(=O)[C@@H]1CCCN1)C(C)C)C(C)C)[C@@H](C)O)C(=O)O [FAM105B] (H-PVRVCEETSL-OH)", "µM", "=", 1.9]
]}
